- Target Or Test System: Neu5Ac(a2-6)GalNAc
- Experiment Description: glycan array binding signal (z-score within array); higher = stronger binding
- Assay Conditions: glycan notation: IUPAC condensed, linker removed
Shown is part of a subset that was picked to be rich in the strongest signals.
Measured Parameter: glycan array binding signal (z-score)
Write the value as a bare number.

Req: So what's the measured glycan array binding signal (z-score) for this one? Tectonin 2 (Laccaria bicolor) (protein) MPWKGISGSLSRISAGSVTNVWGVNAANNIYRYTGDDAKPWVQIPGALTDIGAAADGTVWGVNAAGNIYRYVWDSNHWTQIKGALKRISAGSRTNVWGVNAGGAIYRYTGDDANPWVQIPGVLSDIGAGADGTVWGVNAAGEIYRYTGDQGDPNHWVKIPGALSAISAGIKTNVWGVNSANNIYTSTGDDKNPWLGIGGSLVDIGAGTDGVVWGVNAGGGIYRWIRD
Resp: -0.325
